B1: TPR t1 (parent)
chain: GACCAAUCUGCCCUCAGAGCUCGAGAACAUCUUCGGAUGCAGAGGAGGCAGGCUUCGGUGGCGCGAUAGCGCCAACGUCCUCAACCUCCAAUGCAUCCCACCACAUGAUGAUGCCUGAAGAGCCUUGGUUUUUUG

- Variants of: B1
- ASSAY TEXT: polymerase ribozyme fitness, log enrichment relative to wild type (log ratio); higher = more active; in vitro selection for triplet polymerase activity
EXPERIMENTAL READOUT: polymerase ribozyme fitness (log ratio)
// print number alone

Reference set (5 entries):
1. C56U C124U U133G; 1.14
2. U30G U32C; -6.32
3. G61A G113A; -0.325
4. G45A C62U; -0.924
5. A43U A46G U55G; -1.34

Notebook: A5G C13A C53U U59G G69C , polymerase ribozyme fitness (log ratio) read as -4.36

Lookup result for U38G A41U C53G C62A G113A A119C ; measured polymerase ribozyme fitness (log ratio): -5.91

polymerase ribozyme fitness (log ratio) for A43G G57U C88A C104A G120U is -5.76

Summary for this variant, G61U A66C C114A : polymerase ribozyme fitness (log ratio) is -2.88

Memo: C4U C11G C12A G19C C62G , reported polymerase ribozyme fitness (log ratio): -4.71

Memo: C15U G44U , reported polymerase ribozyme fitness (log ratio): -2.59

get_value(item= C11G A16G G60A C88U C124A , readout=polymerase ribozyme fitness (log ratio)) returns -0.731

polymerase ribozyme fitness (log ratio) for A24G A27G G120A is -3.91

Record C8G G93U . Reported polymerase ribozyme fitness (log ratio): -0.15

Memo: G61C C101G U112C , reported polymerase ribozyme fitness (log ratio): -2.46

Item: G47U C72U U78C G113C | polymerase ribozyme fitness (log ratio): -3.65

variant A2U G71U , polymerase ribozyme fitness (log ratio) observed: -2.05

Lab book: polymerase ribozyme fitness (log ratio) of C70U G120C U132C noted as 0.806

Value of measured polymerase ribozyme fitness (log ratio) for the entry C3A G120U : -0.479

Lab book: polymerase ribozyme fitness (log ratio) of G44A A46U C85U C86G noted as -4.71

The reported polymerase ribozyme fitness (log ratio) of the variant C12U C31G A37G G45U A50C G51U C102A G117U was -7.15

// sample A16G G69C A91U G113U , its polymerase ribozyme fitness (log ratio) was -3.01

src = the RNAGym collection of RNA variant scans (doi:10.1073/pnas.2313332121)
